Assay: Stability of Inhibitors in Human Plasma As Measured By APTT
Assay type: in vitro ADME
Details: incubation in human plasma 2 h; 250 nM in APTT assay
quantity name: Clotting Time (s)
Answers are plain numbers, in s.

# annotated cases, reported Clotting Time shown
CC1(C)C2CC3OB(C(CCCN=C(N)N)NC(=O)C4CCCN4C(=O)C(N)Cc4ccccc4)OC3(C)C1C2.Cl.Cl (stereo not drawn) [B, H-(D)Phe-Pro-boroArg-C10 H16.2HCl] ... 152.8
CC(C)(C)OC(=O)NC(Cc1ccccc1)C(=O)N1CCCC1C(=O)NC(CCCN=C(N)N)B1OC2CC3CC(C3(C)C)C2(C)O1.O=S(=O)(O)c1ccccc1 (centres unmarked) [A] ... 86.7
Br.CC(C)(C)OC(=O)NC(Cc1ccccc1)C(=O)N1CCCC1C(=O)NC(CCCSC(=N)N)B1OC2CC3CC(C3(C)C)C2(C)O1 (stereo not drawn) [C, Boc-(D)Phe-Pro-boroIrg-C10 H16.HBr] ... 203.7
CC(C)(C)OC(=O)N[C@H](Cc1ccccc1)C(=O)N[C@@H](Cc1ccccc1)C(=O)N[C@@H](CCCNC(=N)N)B1OC2CC3CC(C3(C)C)C2(C)O1.O=S(=O)(O)c1ccccc1 (some centres unmarked) [E] ... 67.7

Clotting Time reading for CC(=O)NC(Cc1ccccc1)C(=O)NC(CCCNC(=N)N)B1OC2CC3CC(C3(C)C)C2(C)O1.Cl (centres unmarked) [Compound F, Ac-Phe-boroArg-C10 H16.HCl] : 79.6

====

Assay: Stability of Inhibitors in Human Plasma As Measured By APTT
Assay type: in vitro ADME
Conditions: incubation in human plasma 4 h; 250 nM in APTT assay
For each of the compounds below, state its Clotting Time.

Example cases with answers are listed next.
CC(=O)NC(Cc1ccccc1)C(=O)NC(CCCNC(=N)N)B1OC2CC3CC(C3(C)C)C2(C)O1.Cl (centres unmarked) [Compound F, Ac-Phe-boroArg-C10 H16.HCl] ... 81.8 s
CC1(C)C2CC3OB(C(CCCN=C(N)N)NC(=O)C4CCCN4C(=O)C(N)Cc4ccccc4)OC3(C)C1C2.Cl.Cl (stereo not drawn) [B, H-(D)Phe-Pro-boroArg-C10 H16.2HCl] ... 157.7 s
CC(C)(C)OC(=O)N[C@H](Cc1ccccc1)C(=O)N[C@@H](Cc1ccccc1)C(=O)N[C@@H](CCCNC(=N)N)B1OC2CC3CC(C3(C)C)C2(C)O1.O=S(=O)(O)c1ccccc1 (some centres unmarked) ... 58.2 s

Hey, quick one: what's Clotting Time for each of these?
1. CC(C)(C)OC(=O)NC(Cc1ccccc1)C(=O)N1CCCC1C(=O)NC(CCCN=C(N)N)B1OC2CC3CC(C3(C)C)C2(C)O1.O=S(=O)(O)c1ccccc1 (centres unmarked)
2. Br.CC(C)(C)OC(=O)NC(Cc1ccccc1)C(=O)N1CCCC1C(=O)NC(CCCSC(=N)N)B1OC2CC3CC(C3(C)C)C2(C)O1 (centres unmarked)

## Result
["98.2 s", "209.7 s"]

====

Molecular target: Human thrombin (Homo sapiens, UniProt P00734)
Construct: purchased R.Q.P. Laboratories, South Bend, IN Lot HT102
Assay: Inhibition of Thrombin (Esterase Activity)
Format: biochemical
Settings: inhibitor 10 nM; activity remaining 10 to 20 min after initiation
Residues, ends and D or L forms follow the SMILES beside them. *: point of attachment. X1 = CC1(C)C2CC3OB(C(CCCNC(=N)N)N*)OC3(C)C1C2; X2 = CC1(C)C2CC3OB(C(CCCSC(=N)N)N*)OC3(C)C1C2; Boc = CC(C)(C)OC(=O)*
quantity name: Percent Activity (%)
One number for each entry, in %.

Sample answers from the record:
CCCCOC(=O)CC[C@H](NC(=O)c1ccccc1)C(=O)NCC(=O)NC(CCCNC(=N)N)B1OC2CC3CC(C3(C)C)C2(C)O1.O=S(=O)(O)c1ccccc1 (stereo partly shown) [Bz--Glu(OBu)--Gly--boroArg--C10 H16.BSA] ... 52
CC(C)CC(NC(=O)CNC(=O)C(CC(C)C)NC(=O)OC(C)(C)C)C(=O)NC(C)C(=O)NC(CCCNC(=N)N)B1OC2CC3CC(C3(C)C)C2(C)O1.O=S(=O)(O)c1ccccc1 (stereo not shown) (Boc-LGLA-X1; configuration not given here) ... 38
Br.Br.CC(C)CC(N)C(=O)NCC(=O)NC(CC(C)C)C(=O)NC(C)C(=O)NC(CCCSC(=N)N)B1OC2CC3CC(C3(C)C)C2(C)O1 (stereo not drawn) [H-Leu-Gly-Leu-Ala-boroIrg-C10 H16.2HBr] (H-LGLA-X2; configuration not given here) ... 37

Could you now look at the following compound, please?
Field Percent Activity (Human thrombin (Homo sapiens, UniProt P00734)), entry CC1(C)C2CC3OB(C(CCCNC(=N)N)NC(=O)C(Cc4ccccc4)NC(=O)C(N)Cc4ccccc4)OC3(C)C1C2.Cl.Cl (stereo not drawn) [H--(D)Phe--Phe--boroArg--C10 H16.2HCl, H-(D)Phe-Phe-boroArg-C10 H16.2HCl] : 10

====

Target: Human thrombin (Homo sapiens)
Construct: purchased R.Q.P. Laboratories, South Bend, IN Lot HT102
Assay: Inhibition of Thrombin (Esterase Activity)
Assay type: biochemical
Conditions: inhibitor 10000 nM; activity remaining 10 to 20 min after initiation
quantity name: Percent Activity
Answer format: value, then unit.

Below: 4 molecules and their reported Percent Activity.
Br.Br.CC(N)C(=O)NC(Cc1ccccc1)C(=O)NC(CCCSC(=N)N)B1OC(C)(C)C(C)(C)O1 (centres unmarked) ... 23%
Br.CC(NC(=O)OC(C)(C)C)C(=O)NC(Cc1ccccc1)C(=O)NC(CCCCSC(=N)N)B1OC(C)(C)C(C)(C)O1 (centres unmarked) ... 32%
Br.Br.CC(N)C(=O)NC(Cc1ccccc1)C(=O)NC(CCCCSC(=N)N)B1OC(C)(C)C(C)(C)O1 (centres unmarked) ... 47%
CC(=O)NC(Cc1ccccc1)C(=O)NC(CCCCN)B1OC(C)(C)C(C)(C)O1.Cl (centres unmarked) [Ac--Phe--boroLys--C6 H12.HCl] ... 97%

From here, focus on the item given below.
What the record says about CC(NC(=O)OC(C)(C)C)C(=O)NC(Cc1ccccc1)C(=O)NC(CCCCN)B1OC(C)(C)C(C)(C)O1.Cl (stereo not drawn) [Boc--Ala--Phe--(D,L)boroLys--C6 H12.HCl, Boc-Ala-Phe-(D,L)boroLys-C6 H12.HCl] : Percent Activity is 46%

====

Exercise: state measured Percent Activity for each of the compounds provided.
Molecular target: Human thrombin (Homo sapiens)
Construct: purchased R.Q.P. Laboratories, South Bend, IN Lot HT102
Assay: Inhibition of Thrombin (Esterase Activity)
Assay type: biochemical
Settings: inhibitor 10 nM; activity remaining 10 to 20 min after initiation
Residues, ends and D or L forms follow the SMILES beside them. *: point of attachment. X1 = CC1(C)C2CC3OB(C(CCCNC(=N)N)N*)OC3(C)C1C2; X2 = CC1(C)C2CC3OB(C(CCCSC(=N)N)N*)OC3(C)C1C2; Boc = CC(C)(C)OC(=O)*
Numbers only, in %.

Below, 3 compounds whose answers are already recorded.
CC(C)(C)OC(=O)N[C@H](Cc1ccccc1)C(=O)N[C@@H](Cc1ccccc1)C(=O)N[C@@H](CCCNC(=N)N)B1OC2CC3CC(C3(C)C)C2(C)O1.O=S(=O)(O)c1ccccc1 (stereo partly shown) ... 32
CC(C)CC(N)C(=O)NCC(=O)NC(CC(C)C)C(=O)NC(C)C(=O)NC(CCCNC(=N)N)B1OC2CC3CC(C3(C)C)C2(C)O1.Cl.O=S(=O)(O)c1ccccc1 (stereo not shown) (H-LGLA-X1; configuration not given here) ... 25
Br.Br.CC1(C)C2CC3OB(C(CCCSC(=N)N)NC(=O)C(Cc4ccccc4)NC(=O)C(N)Cc4ccccc4)OC3(C)C1C2 (stereo not shown) ... 49

Percent Activity for Br.CC(C)CC(NC(=O)CNC(=O)C(CC(C)C)NC(=O)OC(C)(C)C)C(=O)NC(C)C(=O)NC(CCCSC(=N)N)B1OC2CC3CC(C3(C)C)C2(C)O1 (stereo not drawn) [Boc-Leu-Gly-Leu-Ala-boroIrg-C10 H16.HBr] (Boc-LGLA-X2; configuration not given here) is 66

====

Biological target: Human thrombin (Homo sapiens)
Construct: purchased R.Q.P. Laboratories, South Bend, IN Lot HT102
Test: Inhibition of Thrombin (Esterase Activity)
Format: biochemical
Details: inhibitor 100 nM; activity remaining 10 to 20 min after initiation
quantity name: Percent Activity

Items follow; give Percent Activity for each.
1. Br.CC(=O)NC(C)C(=O)NC(CCCCNC(=O)OC(C)(C)C)C(=O)NC(CCCSC(=N)N)B1OC2CC3CC(C3(C)C)C2(C)O1 (stereo not shown)
2. CC1(C)C2CC3OB(C(CCCNC(=N)N)NC(=O)CNC(=O)C(CCC(=O)O)NC(=O)c4ccccc4)OC3(C)C1C2.O=S(=O)(O)c1ccccc1 (stereo not shown)
3. Br.CC1(C)C2CC3OB(C(CCCSC(=N)N)NC(=O)CNC(=O)CNC(=O)C(Cc4ccccc4)NC(=O)OCc4ccccc4)OC3(C)C1C2 (stereo not shown)
4. CC(C)(C)OC(=O)NC(Cc1ccccc1)C(=O)N1CCCC1C(=O)NC(CCCN)B1OC2CC3CC(C3(C)C)C2(C)O1.O=S(=O)(O)c1ccccc1 (stereo not shown)

## Result
1. 55%
2. 46%
3. 46%
4. 18%
